Target: T1, human EphB4 (Homo sapiens, UniProt P54760)
T1 construct: a protein of the extracellular region of each human Eph receptor fused with the SEAP protein and the His tag; made in house; host or cells: Expi293F cells
T1 sequence (P54760 16-539 limits assumed): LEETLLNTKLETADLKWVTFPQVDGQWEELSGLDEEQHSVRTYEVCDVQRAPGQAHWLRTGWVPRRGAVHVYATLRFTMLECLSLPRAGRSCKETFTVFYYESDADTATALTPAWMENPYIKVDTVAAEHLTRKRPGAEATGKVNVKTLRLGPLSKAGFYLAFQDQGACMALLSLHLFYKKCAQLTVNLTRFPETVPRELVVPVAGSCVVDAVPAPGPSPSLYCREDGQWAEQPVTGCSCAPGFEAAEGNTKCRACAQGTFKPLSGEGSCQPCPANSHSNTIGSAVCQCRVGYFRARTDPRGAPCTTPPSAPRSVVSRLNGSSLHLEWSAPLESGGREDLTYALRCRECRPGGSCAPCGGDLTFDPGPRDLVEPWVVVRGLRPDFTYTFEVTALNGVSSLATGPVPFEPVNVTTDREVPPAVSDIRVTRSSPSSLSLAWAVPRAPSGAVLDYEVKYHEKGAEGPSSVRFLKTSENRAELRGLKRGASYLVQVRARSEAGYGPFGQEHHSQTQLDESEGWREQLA
Test: Selectivity ELISA of humanized antibodies for human Eph receptor
Format: binding
Conditions: coated protein 1 nM
Excerpt: According to the method described in Example 7, a DNA sequence encoding the signal sequence and the extracellular region of each human Eph receptor (EphA1, EphA2, EphA3, EphA4, EphA5, EphA6, EphA7, EphA8, EphA10, EphB1, EphB2, EphB3, EphB4, and EphB6) was amplified by RT-PCR using tissue-derived total RNA and cloned into a pENTR1A vector (Invitrogen/Life Technologies) having a DNA sequence encoding SEAP protein and histidine tag. […]
The reader will find reported hEphB4-SEAP-: absorbance at 450 nm, percentage with respect to hEphA4-SEAP-His as 100% values listed item by item below.
Respond numerically; units are % and should not be typed.

molecule: 86 (antibody, V domains shown, constant regions without entry; synthetic humanized antibody light chain variable region sequence; synthetic humanized antibody heavy chain variable region sequence) VL: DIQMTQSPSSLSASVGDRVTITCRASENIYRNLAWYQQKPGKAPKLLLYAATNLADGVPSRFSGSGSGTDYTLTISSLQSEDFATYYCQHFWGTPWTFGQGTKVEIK VH: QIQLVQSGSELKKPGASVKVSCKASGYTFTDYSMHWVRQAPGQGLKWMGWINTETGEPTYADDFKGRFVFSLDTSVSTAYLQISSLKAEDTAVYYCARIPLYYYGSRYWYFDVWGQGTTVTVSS
endpoint_result: 5.8
//
molecule: 84 (antibody, V domains shown, constant regions without entry; synthetic humanized antibody light chain variable region sequence; synthetic humanized antibody heavy chain variable region sequence) VL: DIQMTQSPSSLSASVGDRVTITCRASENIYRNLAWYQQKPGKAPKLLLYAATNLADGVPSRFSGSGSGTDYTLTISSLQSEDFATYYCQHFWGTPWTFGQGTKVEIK VH: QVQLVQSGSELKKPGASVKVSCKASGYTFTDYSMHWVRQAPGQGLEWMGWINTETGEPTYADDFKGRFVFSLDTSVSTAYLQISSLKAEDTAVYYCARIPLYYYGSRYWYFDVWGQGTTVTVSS
endpoint_result: 5.4
//
molecule: 133 (antibody, V domains shown, synthetic humanized antibody heavy chain variable region sequence; synthetic humanized antibody light chain variable region sequence) VH: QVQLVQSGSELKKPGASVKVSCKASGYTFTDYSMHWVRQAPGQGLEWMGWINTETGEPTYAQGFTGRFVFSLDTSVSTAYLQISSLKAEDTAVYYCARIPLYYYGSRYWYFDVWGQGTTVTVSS VL: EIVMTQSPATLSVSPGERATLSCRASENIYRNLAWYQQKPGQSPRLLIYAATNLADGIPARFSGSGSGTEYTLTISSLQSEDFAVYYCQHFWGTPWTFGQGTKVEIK
endpoint_result: 4.9

As a next step, examine the molecule that follows.
## Task Query (molecule): 91 (antibody, V domains shown, constant regions without entry; synthetic humanized antibody light chain variable region sequence; synthetic humanized antibody heavy chain variable region sequence) VL: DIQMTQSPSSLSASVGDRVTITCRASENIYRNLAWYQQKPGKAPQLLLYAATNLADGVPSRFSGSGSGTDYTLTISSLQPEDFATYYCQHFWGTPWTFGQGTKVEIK VH: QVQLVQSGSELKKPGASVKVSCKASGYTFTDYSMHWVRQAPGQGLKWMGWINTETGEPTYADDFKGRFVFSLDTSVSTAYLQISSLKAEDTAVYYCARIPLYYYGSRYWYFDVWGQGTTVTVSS ; field requested: hEphB4-SEAP-: absorbance at 450 nm, percentage with respect to hEphA4-SEAP-His as 100%
## Result 6.2
